experiment: Inhibition of HIV reverse transcriptase; parameters: species or system Human immunodeficiency virus
EXPERIMENTAL ENDPOINT: IC50 (nM)

Would you please look over these solved cases?
CCn1cc(C(=O)O)c(=O)c2cc(COCn3c(Cc4ccccc4)c(C(C)C)c(=O)[nH]c3=O)ccc21 : 1100
CC(C)c1c(Cc2ccccc2)n(COCc2ccc3c(c2)c(=O)c(C(=O)O)cn3C)c(=O)[nH]c1=O : 2600

(A) CC(C)c1c(Cc2ccccc2)n(COCc2ccc3[nH]cc(C(=O)O)c(=O)c3c2)c(=O)[nH]c1=O
(B) CC(C)c1c(Cc2ccccc2)n(COCc2ccc3c(c2)c(=O)c(C(=O)O)cn3CCO)c(=O)[nH]c1=O
Endpoint returns whichever of A and B has the numerically higher IC50. // return label of chosen record
B
(B: 3700 nM, A: 190 nM)

* * *

experiment: Inhibition of HIV integrase; parameters: species or system Human immunodeficiency virus
EXPERIMENTAL ENDPOINT: IC50 (µM)

Would you please look over these solved cases?
CC(C)c1c(Cc2ccccc2)n(COCc2ccc3c(c2)c(=O)c(C(=O)O)cn3C)c(=O)[nH]c1=O : 41
CCn1cc(C(=O)O)c(=O)c2cc(COCn3c(Cc4ccccc4)c(C(C)C)c(=O)[nH]c3=O)ccc21 : 51

(P) CC(C)c1c(Cc2ccccc2)n(COCc2ccc3[nH]cc(C(=O)O)c(=O)c3c2)c(=O)[nH]c1=O
(Q) CC(C)c1c(Cc2ccccc2)n(COCc2ccc3c(c2)c(=O)c(C(=O)O)cn3CCO)c(=O)[nH]c1=O
Endpoint returns whichever of P and Q has the numerically higher IC50. // return label of chosen record
P
(P: 35 µM, Q: 19 µM)
